tested on: IGROV1; assay: NCI one-dose screening, ovarian cancer IGROV1; format: cell-based, human; conditions: 10 μM
Assay Endpoint: Growth Percent IGROV1 (%)

compound_smiles=O=C1c2ccccc2C(=O)c2c1cc(Cl)c1nsnc21 value_reported=52.47
compound_smiles=O=C1c2ccccc2C(=O)c2c1cc(N1CCSCC1)c1nsnc21 value_reported=75.28
compound_smiles=Cc1ccccc1Nc1cc2c(c3nsnc13)C(=O)c1ccccc1C2=O value_reported=25.29
compound_smiles=O=C1c2ccccc2C(=O)c2c1cc(Sc1ccccc1Br)c1nsnc21 value_reported=27.94
compound_smiles=O=C1c2ccccc2C(=O)c2c1ccc1nsnc21 value_reported=−88.34
compound_smiles=CCOc1cccc(Sc2cc3c(c4nsnc24)C(=O)c2ccccc2C3=O)c1 value_reported=94.67
compound_smiles=O=C1c2ccccc2C(=O)c2c1cc(SCc1ccc(Cl)cc1)c1nsnc21 value_reported=84.25
compound_smiles=Cc1ccc(Sc2cc3c(c4nsnc24)C(=O)c2ccccc2C3=O)c(C)c1 value_reported=95.00
compound_smiles=O=C1c2ccccc2C(=O)c2c1cc(Sc1ccc(F)cc1F)c1nsnc21 value_reported=975
compound_smiles=O=C1c2ccccc2C(=O)c2c1cc(Sc1ccccn1)c1nsnc21 value_reported=−30.93

###

test system: NCl/ADR-RES; assay: NCI one-dose screening, breast cancer NCl/ADR-RES; format: cell-based, human; conditions: 10 μM; listed under Ovarian cancer
Assay Endpoint: Growth Percent NCI/ADR-RES

compound_smiles=CSc1ccc(Sc2cc3c(c4nsnc24)C(=O)c2ccccc2C3=O)cc1 value_reported=91.79%
compound_smiles=COc1cccc(Sc2cc3c(c4nsnc24)C(=O)c2ccccc2C3=O)c1 value_reported=92.67%
compound_smiles=O=C1c2ccccc2C(=O)c2c1cc(Nc1ccc(Cl)cc1F)c1nsnc21 value_reported=48.31%
compound_smiles=Cc1cccc(C)c1Sc1cc2c(c3nsnc13)C(=O)c1ccccc1C2=O value_reported=59.68%
compound_smiles=O=C1c2ccccc2C(=O)c2c1ccc1nsnc21 value_reported=−2.53%
compound_smiles=O=C1c2ccccc2C(=O)c2c1cc(Sc1ccc(F)cc1F)c1nsnc21 value_reported=−26.24%
compound_smiles=O=C1c2ccccc2C(=O)c2c1cc(N1CCOCC1)c1nsnc21 value_reported=43.58%
compound_smiles=O=C1c2ccccc2C(=O)c2c1cc(Sc1ccc(Cl)cc1)c1nsnc21 value_reported=102.42%

###

tested on: HS 578-T; assay: NCI one-dose screening, breast cancer HS 578-T; type: cell-based, human; conditions: 10 μM; Breast cancer
Attribute: Growth Percent HS 578T
Assay Endpoint: Growth Percent HS 578T (%)

compound_smiles=O=C1c2ccccc2C(=O)c2c1cc(N1CCSCC1)c1nsnc21 value_reported=84.36
compound_smiles=CSc1ccc(Sc2cc3c(c4nsnc24)C(=O)c2ccccc2C3=O)cc1 value_reported=96.47
compound_smiles=O=C1c2ccccc2C(=O)c2c1cc(SCc1ccccc1)c1nsnc21 value_reported=59.96
compound_smiles=O=C1c2ccccc2C(=O)c2c1cc(N1CCOCC1)c1nsnc21 value_reported=88.35
compound_smiles=O=C1c2ccccc2C(=O)c2c1ccc1nsnc21 value_reported=7.40
compound_smiles=O=C1c2ccccc2C(=O)c2c1cc(Nc1ccc(Cl)cc1)c1nsnc21 value_reported=76.50
compound_smiles=Cc1ccc(Sc2cc3c(c4nsnc24)C(=O)c2ccccc2C3=O)c(C)c1 value_reported=99.06
compound_smiles=O=C1c2ccccc2C(=O)c2c1cc(Cl)c1nsnc21 value_reported=72.54

###

system: A549/ATCC; assay: NCI one-dose screening, non-small cell lung cancer A549/ATCC; type: cell-based, human; conditions: 10 μM
Assay Endpoint: Growth Percent A549/ATCC

compound_smiles=O=C1c2ccccc2C(=O)c2c1cc(SCc1ccccc1)c1nsnc21 value_reported=101.64%
compound_smiles=O=C1c2ccccc2C(=O)c2c1cc(Sc1ccccc1Br)c1nsnc21 value_reported=95.37%
compound_smiles=O=C1c2ccccc2C(=O)c2c1cc(Nc1ccc(Cl)cc1)c1nsnc21 value_reported=72.79%
compound_smiles=COc1ccc(Sc2cc3c(c4nsnc24)C(=O)c2ccccc2C3=O)cc1 value_reported=103.32%

###

tested on: SN12C; experiment: NCI one-dose screening, renal cancer SN12C; type: cell-based, human; conditions: 10 μM
Criterion: Growth Percent SN12C meeting or surpassing 20%. Met: Criterion met. Not met: Criterion not met.

compound_smiles=O=C1c2ccccc2C(=O)c2c1cc(Sc1ccc(F)cc1F)c1nsnc21 answer_label="Criterion not met"
compound_smiles=O=C1c2ccccc2C(=O)c2c1cc(Sc1ccccc1Br)c1nsnc21 answer_label="Criterion met"
compound_smiles=O=C1c2ccccc2C(=O)c2c1ccc1nsnc21 answer_label="Criterion not met"
compound_smiles=COc1ccc(Sc2cc3c(c4nsnc24)C(=O)c2ccccc2C3=O)cc1 answer_label="Criterion met"
compound_smiles=O=C1c2ccccc2C(=O)c2c1cc(Cl)c1nsnc21 answer_label="Criterion met"
compound_smiles=O=C1c2ccccc2C(=O)c2c1cc(Sc1ccccn1)c1nsnc21 answer_label="Criterion met"
compound_smiles=CCSc1cc2c(c3nsnc13)C(=O)c1ccccc1C2=O answer_label="Criterion not met"
compound_smiles=O=C1c2ccccc2C(=O)c2c1cc(SCc1ccc(Cl)cc1)c1nsnc21 answer_label="Criterion met"

###

system: CAKI-1; assay: NCI one-dose screening, renal cancer CAKI-1; assay type: cell-based, human; details: 10 μM
Assay Endpoint: Growth Percent CAKI-1 (%)

molecule="O=C1c2ccccc2C(=O)c2c1cc(N1CCOCC1)c1nsnc21 [C10]" target_system=CAKI-1 display_unit=% value_reported=61.73
molecule="O=C1c2ccccc2C(=O)c2c1cc(Sc1ccccn1)c1nsnc21 [C58]" target_system=CAKI-1 display_unit=% value_reported=59.22
molecule="O=C1c2ccccc2C(=O)c2c1cc(Nc1ccc(Cl)cc1)c1nsnc21 [C60]" target_system=CAKI-1 display_unit=% value_reported=58.59
molecule="Cc1cccc(C)c1Sc1cc2c(c3nsnc13)C(=O)c1ccccc1C2=O [C55]" target_system=CAKI-1 display_unit=% value_reported=61.03

###

assay: NCI one-dose screening, renal cancer A489; assay type: cell-based, human; conditions: 10 μM
Criterion: Growth Percent A498 meeting or surpassing 80%. Met: fulfilled. Not met: not fulfilled.

compound_smiles=COc1cccc(Sc2cc3c(c4nsnc24)C(=O)c2ccccc2C3=O)c1 answer_label=fulfilled
compound_smiles=O=C1c2ccccc2C(=O)c2c1cc(Sc1ccccc1)c1nsnc21 answer_label=fulfilled
compound_smiles=O=C1c2ccccc2C(=O)c2c1cc(Sc1ccccc1Br)c1nsnc21 answer_label="not fulfilled"
compound_smiles=CSc1ccc(Sc2cc3c(c4nsnc24)C(=O)c2ccccc2C3=O)cc1 answer_label="not fulfilled"
compound_smiles=O=C1c2ccccc2C(=O)c2c1cc(Sc1ccc(Cl)cc1)c1nsnc21 answer_label=fulfilled
compound_smiles=O=C1c2ccccc2C(=O)c2c1ccc1nsnc21 answer_label=fulfilled
compound_smiles=O=C1c2ccccc2C(=O)c2c1cc(Sc1ccc(F)cc1F)c1nsnc21 answer_label="not fulfilled"
compound_smiles=Cc1ccc(Sc2cc3c(c4nsnc24)C(=O)c2ccccc2C3=O)c(C)c1 answer_label=fulfilled
compound_smiles=O=C1c2ccccc2C(=O)c2c1cc(Cl)c1nsnc21 answer_label=fulfilled
